- Assayed System: Flag/GST-tagged recombinant human B-Raf (Homo sapiens, UniProt P15056)
- Construct: Flag; GST; made in house; host or cells: Sf9 insect cells (B-Raf); E. coli (MEK1-GST)
- Sequence (P15056 whole entry): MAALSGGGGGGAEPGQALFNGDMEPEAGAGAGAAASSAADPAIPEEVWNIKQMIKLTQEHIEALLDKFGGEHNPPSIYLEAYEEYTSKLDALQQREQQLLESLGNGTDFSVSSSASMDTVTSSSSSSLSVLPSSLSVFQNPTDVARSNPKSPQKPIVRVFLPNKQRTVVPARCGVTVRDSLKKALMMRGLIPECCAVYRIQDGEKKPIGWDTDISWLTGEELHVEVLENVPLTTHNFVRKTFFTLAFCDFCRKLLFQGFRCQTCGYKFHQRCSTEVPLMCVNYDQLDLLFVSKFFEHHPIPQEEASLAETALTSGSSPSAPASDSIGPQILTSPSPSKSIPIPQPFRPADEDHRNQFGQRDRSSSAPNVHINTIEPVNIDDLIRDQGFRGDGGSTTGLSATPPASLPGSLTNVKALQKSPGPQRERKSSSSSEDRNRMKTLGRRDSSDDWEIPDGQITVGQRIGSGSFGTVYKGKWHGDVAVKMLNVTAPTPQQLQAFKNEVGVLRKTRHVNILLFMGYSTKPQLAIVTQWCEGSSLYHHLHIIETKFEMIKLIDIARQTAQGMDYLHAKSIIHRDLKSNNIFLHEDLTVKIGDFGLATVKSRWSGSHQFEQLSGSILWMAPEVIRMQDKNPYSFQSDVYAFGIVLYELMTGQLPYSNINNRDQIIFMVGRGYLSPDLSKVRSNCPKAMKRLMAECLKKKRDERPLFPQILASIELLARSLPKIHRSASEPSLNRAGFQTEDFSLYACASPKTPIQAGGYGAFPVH
- Run Description: B-Raf Kinase to MEK1 ELISA
- Format: biochemical
- Condition Notes: phosphorylation of GST-MEK1 by B-Raf (0.2 nM), phospho-MEK1 antibody/Europium readout; compound concentrations from 1 μM to 3 nM or 0.1 μM to 300 pm in half log dilutions; read-out: IC50
- Procedure: B-Raf Kinase to MEK1 ELISA B-Raf1 Kinase Assay Procedure: B-Raf-1 is used to phosphorylate GST-MEK1. B-Raf Assay Stock Solutions: 1. Assay Dilution Buffer (ADB): 20 mM MOPS, pH 7.2, 25 mM β-glycerol phosphate, 5 mM EGTA, 1 mM sodium orthovanadate, 1 mM dithiothreitol, 0.01% Triton X-100. 2. […] 12. Read plates in Wallac Victor model Plate Reader. […] The % inhibition was determined for each compound concentration.
Attribute Measured: IC50 (nM)

Answered examples (2):
Prompt: Find the recorded IC50 belonging to CC(=O)c1ccc(-c2cc3c(-c4cccc(NC(=O)c5cccc(C(F)(F)F)c5)c4)ncnc3s2)cc1 and report it.
Response: 2730

Prompt: Find the recorded IC50 belonging to O=C(Nc1cccc(-c2ncnc3sc(C4=CCNCC4)cc23)c1)c1cccc(C(F)(F)F)c1 and report it.
Response: 2500

a: NC(=O)c1cc2c(-c3cccc(NC(=O)c4cccc(C(F)(F)F)c4)c3)ncnc2s1
b: N#Cc1cc2c(-c3cccc(NC(=O)c4cccc(C(F)(F)F)c4)c3)ncnc2s1
Prompt: Could you please tell me which of these two has the higher IC50: a or b ? Reply briefly: the label of your chosen item.
Response: b

====

- Assayed System: Flag/GST-tagged recombinant human B-Raf (Homo sapiens, UniProt P15056)
- Construct: Flag; GST; made in house; host or cells: Sf9 insect cells (B-Raf); E. coli (MEK1-GST)
- Run Description: B-Raf Kinase to MEK1 ELISA
- Format: biochemical
- Condition Notes: phosphorylation of GST-MEK1 by B-Raf (0.2 nM), phospho-MEK1 antibody/Europium readout; compound concentrations from 1 μM to 3 nM or 0.1 μM to 300 pm in half log dilutions; read-out: IC50
pIC50: −log10 of the molar value.
Attribute Measured: pIC50

Answered examples (3):
Prompt: Find the recorded pIC50 belonging to CNC(=O)c1cc(-c2cc3c(-c4cccc(NC(=O)c5cccc(C(F)(F)F)c5)c4)ncnc3s2)ccn1 [Compound 85] and report it.
Response: 6.14

Prompt: Find the recorded pIC50 belonging to N#Cc1cnc2cc(-c3ccncc3)sc2c1-c1cccc(NC(=O)c2cccc(C(F)(F)F)c2)c1 [Compound 5] and report it.
Response: 5.23

Prompt: Find the recorded pIC50 belonging to N#Cc1ccc(-c2cc3c(-c4cccc(NC(=O)c5cccc(C(F)(F)F)c5)c4)ncnc3s2)cc1 [Compound 77] and report it.
Response: 5.91

a: O=C(Nc1cccc(-c2ncnc3sc(-c4ccc(Cl)cc4)cc23)c1)c1cccc(C(F)(F)F)c1 [Compound 79]
b: CC(=O)Nc1cccc(-c2cc3c(-c4cccc(NC(=O)c5cccc(C(F)(F)F)c5)c4)ncnc3s2)c1 [Compound 72]
Prompt: Which gives the smaller pIC50 number: a or b ? Reply briefly: the label of your chosen item.
Response: a
(a: 5.33, b: 5.68)

1: O=C(Nc1cccc(-c2ncnc3sc(-c4cccnc4)cc23)c1)c1cccc(C(F)(F)F)c1 [Compound 75]
2: CC(=O)c1cccc(-c2cc3c(-c4cccc(NC(=O)c5cccc(C(F)(F)F)c5)c4)ncnc3s2)c1 [Compound 81]
Prompt: Could you please tell me which of these two has the higher pIC50: 1 or 2 ? Reply briefly: the label of your chosen item.
Response: 1

====

- Assayed System: Flag/GST-tagged recombinant human B-Raf (Homo sapiens, UniProt P15056)
- Construct: Flag; GST; made in house; host or cells: Sf9 insect cells (B-Raf); E. coli (MEK1-GST)
- Run Description: B-Raf Kinase to MEK1 ELISA
- Type: biochemical
Attribute Measured: IC50 (µM)

Answered examples (2):
Prompt: Hi! What's the reported IC50 for O=C(Nc1cccc(-c2ncnc3sc(-c4ccncc4)cc23)c1)Nc1ccc(Cl)c(C(F)(F)F)c1 on Flag/GST-tagged recombinant human B-Raf (Homo sapiens, UniProt P15056)?
Response: 1.4

Prompt: Hi! What's the reported IC50 for O=C(Nc1ccc(Cl)cc1)Nc1cccc(-c2ncnc3sc(-c4ccncc4)cc23)c1 on Flag/GST-tagged recombinant human B-Raf (Homo sapiens, UniProt P15056)?
Response: 1.23

1: O=C(Nc1cccc(-c2ncnc3c2ccn3Cc2ccncc2)c1)c1cccc(C(F)(F)F)c1
2: Cc1ccc(NC(=O)Nc2cccc(-c3ncnc4sc(-c5ccncc5)cc34)c2)cc1C
Prompt: Could you please tell me which of these two has the higher IC50: 1 or 2 ? Reply briefly: the label of your chosen item.
Response: 2
(2: 1.53 µM, 1: 1.02 µM)
